The values you see were collected from DBAASP.

Test system: Pseudomonas aeruginosa ATCC 27853
Assay Name: ≥ marks a high value that may be exact or a test limit, other limits are often not marked, values filed in µg/mL are converted to µM
Measured MIC by item

[
  {
    "Compound Structure String": "CC[C@H](C)[C@H](NC(=O)[C@H](CCCCN)NC(=O)[C@@H](NC(=O)[C@H](Cc1ccccc1)NC(=O)[C@H](C)NC(=O)[C@H](CCCCN)NC(=O)CNC(=O)[C@H](Cc1ccccc1)NC(=O)[C@H](CCCCN)NC(=O)[C@H](CCCCN)NC(=O)[C@H](C)NC(=O)[C@H](CCCCN)NC(=O)[C@H](CCCCN)NC(=O)[C@@H](N)CC(C)C)C(C)C)C(=O)N[C@@H](CC(C)C)C(=O)N[C@@H](CCCCN)C(=O)N[C@@H](CCCCN)C(N)=O",
    "Value Relation Sign": "=",
    "MIC, µM": 1.43
  },
  {
    "Compound Structure String": "CC[C@H](C)[C@H](NC(=O)CN)C(=O)NCC(=O)N[C@@H](CCCCN)C(=O)N[C@@H](Cc1cnc[nH]1)C(=O)N[C@H](C(=O)NCC(=O)N[C@@H](CCCCN)C(=O)N[C@@H](C)C(=O)N[C@@H](CC(C)C)C(=O)N[C@@H](CCCCN)C(=O)NCC(=O)N[C@@H](CC(C)C)C(=O)N[C@@H](CCCCN)C(=O)NCC(=O)N[C@@H](CC(C)C)C(=O)N[C@@H](CC(C)C)C(=O)N[C@@H](CCCCN)C(=O)NCC(=O)N[C@@H](CC(C)C)C(=O)NCC(=O)N[C@@H](CCC(=O)O)C(=O)N[C@@H](CS)C(=O)O)C(C)C",
    "Value Relation Sign": "=",
    "MIC, µM": 2
  },
  {
    "Compound Structure String": "CC[C@H](C)[C@H](NC(=O)[C@@H]1CCCN1C(=O)[C@H](CCCCN)NC(=O)[C@@H]1CCCN1C(=O)[C@H](CCCN=C(N)N)NC(=O)CNC(=O)[C@@H]1CCCN1C(=O)[C@H](Cc1ccccc1)NC(=O)[C@@H]1CCCN1C(=O)[C@H](CCCN=C(N)N)NC(=O)[C@@H]1CCCN1)C(=O)N[C@@H](Cc1ccccc1)C(=O)N[C@@H](CCCN=C(N)N)C(=O)N1CCC[C@H]1C(=O)N[C@@H](CCCN=C(N)N)C(=O)O",
    "Value Relation Sign": ">",
    "MIC, µM": 100
  },
  {
    "Compound Structure String": "CC[C@H](C)[C@H](NC(=O)[C@H](CCC(=O)O)NC(=O)CNC(=O)[C@@H](NC(=O)[C@H](Cc1ccccc1)NC(=O)[C@H](C)NC(=O)[C@H](CCCCN)NC(=O)CNC(=O)[C@H](Cc1ccccc1)NC(=O)[C@H](CCCCN)NC(=O)[C@H](CCCCN)NC(=O)[C@H](C)N)C(C)C)C(=O)N[C@@H](CCSC)C(N)=O",
    "Value Relation Sign": ">",
    "MIC, µM": 64
  },
  {
    "Compound Structure String": "C[C@@H](O)[C@H](NC(=O)[C@H](CCCCN)NC(=O)[C@H](Cc1c[nH]c2ccccc12)NC(=O)[C@H](CCCN=C(N)N)NC(=O)[C@H](CCCCN)NC(=O)[C@H](Cc1ccccc1)NC(=O)[C@H](Cc1ccccc1)NC(=O)CN)C(=O)N[C@@H](Cc1ccccc1)C(=O)N[C@@H](Cc1ccccc1)C(N)=O",
    "Value Relation Sign": "=",
    "MIC, µM": 8
  }
]
